In this section we review reported remaining at 10 min, 0.5 µM values for a set of compounds.
- experimental-details: Metabolic stability in mouse liver microsomes assessed as parent compound remaining at 0.5 uM after 10 mins
- Format: ADME, Microsome
- condition: read-out: Stability
measured-attribute: remaining at 10 min, 0.5 µM

INSERT INTO assay_data (line_notation, measured) VALUES
  ('CC(C)COc1ncc(-c2nn(C)c3cc(C(=O)NS(C)(=O)=O)ccc23)cc1Cl', '100%'),
  ('Cn1nc(-c2ccc(C(F)(F)F)cc2)c2cc(F)c(C(=O)NS(=O)(=O)C3CC3)cc21', '100%'),
  ('CC(C)COc1ccc(-c2cn(C)c3cc(C(=O)NS(=O)(=O)C4CC4)c(F)cc23)cn1', '98%'),
  ('Cn1cc(-c2ccc(C(F)(F)F)cc2)c2cc(F)c(C(=O)NS(C)(=O)=O)cc21', '95%'),
  ('Cn1cc(-c2ccc(C(F)F)cc2)c2cc(F)c(C(=O)NS(=O)(=O)C3CC3)cc21', '86%'),
  ('Cn1cc(-c2ccc(C(F)(F)F)cc2)c2ccc(C(=O)NS(=O)(=O)C3CC3)cc21', '87%'),
  ('CC(C)COc1ncc(-c2cn(C)c3cc(C(=O)NS(C)(=O)=O)c(F)cc23)cc1Cl', '100%'),
  ('Cn1cc(-c2cnc(OCC3CC3)c(Cl)c2)c2ccc(C(=O)NS(=O)(=O)C3CC3)cc21', '93%'),
  ('CC(C)COc1ncc(-c2cn(C)c3cc(C(=O)NS(C)(=O)=O)ccc23)cc1Cl', '100%');
